Reference source for all entries: ChEMBL document CHEMBL4483862

System: Plasmodium berghei
Assay: Luciferase/luciferin-expressing antifolate-resistant parasites were used to infect a culture of HepG2 cells that were pre-incubated with compounds. Infected hepatocytes emit light due to the luciferase reaction. Assay results are presented as the percent inhibition of light emission compared to control. […]
Assay type: functional
Conditions: sporozoite, HEPG2TOX_HILL_SLOPE 6.07, HEPG2TOX_R_SQUARED 0.861, PBLUC_HILL_SLOPE 3.24, PBLUC_R_SQUARED 0.199, read-out: LUCIFERASE INFECTION ASSAY - IC50
OBSERVABLE: IC50 (µM)
Dear colleague, please return just the value in µM, with no unit written.

Query: Given the compound CCN1CCN(c2nc(-c3ccccc3)nc3sc(-c4ccccc4)cc23)CC1 , what is its reported IC50?
Response: 6.9
